Tested on: SiHa (Cervical Carcinoma)
Experiment: combination Emax (second highest fraction inhibited in the dose matrix, 72 h); higher = more inhibition; extreme values may be limits of the assay
RESULT_TYPE: combination Emax
Write the number on its own, no unit after it.

Cn1cnc2c(F)c(Nc3ccc(Br)cc3Cl)c(C(=O)NOCCO)cc21 [Selumetinib] + C[C@@H]1COCCN1C2=NC(=NC(=C2)C3(CC3)[S@](=N)(=O)C)C4=C5C=CNC5=NC=C4 [AZD6738] (first compound max 10 µM, 7x7, partner max 10 µM): 0.209

So what does the record say about combination Emax for CN(C)CCCOc1ccc(-c2ccc3ncc4c(c3c2)n(C2CCOCC2)c(=O)n4C)cn1 [AZD0156] + C=CCn1c(=O)c2cnc(Nc3ccc(N4CCN(C)CC4)cc3)nc2n1-c1cccc(C(C)(C)O)n1 [AZD1775] (first compound max 1 µM, partner max 1 µM) ?
0.143

Could you tell me which combination Emax is on file for Cc1c2c(nn1C)CSCc1cc(n(C)n1)CSc1cc(c3ccccc3c1)OCCCc1c(C(=O)O)n(C)c3c-2c(Cl)ccc13 [AZD5991] + CC1(C)CCC(CN2CCN(c3ccc(C(=O)NS(=O)(=O)c4ccc(NCC5CCOCC5)c([N+](=O)[O-])c4)c(Oc4cnc5[nH]ccc5c4)c3)CC2)=C(c2ccc(Cl)cc2)C1 [Venetoclax] (first compound max 1 µM, 7x7, partner max 1 µM) ?
0.137

Name the reported combination Emax value associated with the compound COc1cccc(OCCCN)c1-c1cc(Nc2cnc(C#N)cn2)n[nH]1 [Prexasertib] + C=CCn1c(=O)c2cnc(Nc3ccc(N4CCN(C)CC4)cc3)nc2n1-c1cccc(C(C)(C)O)n1 [AZD1775] (first compound max 1 µM, partner max 1 µM)
0.487

====

Test system: Raji (Burkitt's Lymphoma)
Test: combination Emax (second highest fraction inhibited in the dose matrix, 72 h); higher = more inhibition; extreme values may be limits of the assay
RESULT_TYPE: combination Emax

Worked examples, 2 compounds total:
COc1nnc2ccc(N3CCC(c4ccc(OCCN5CCN(C)C(=O)[C@H]5C)cc4)CC3)nn12 [AZD5153] + C=CCn1c(=O)c2cnc(Nc3ccc(N4CCN(C)CC4)cc3)nc2n1-c1cccc(C(C)(C)O)n1 [AZD1775] (first compound max 1 µM, partner max 1 µM): 0.711
COc1nnc2ccc(N3CCC(c4ccc(OCCN5CCN(C)C(=O)[C@H]5C)cc4)CC3)nn12 [AZD5153] + Cn1cnc2c(F)c(Nc3ccc(Br)cc3Cl)c(C(=O)NOCCO)cc21 [Selumetinib] (first compound max 1 µM, 7x7, partner max 10 µM): 0.535

We now examine a further compound.
Give the measured combination Emax of Cc1c2c(nn1C)CSCc1cc(n(C)n1)CSc1cc(c3ccccc3c1)OCCCc1c(C(=O)O)n(C)c3c-2c(Cl)ccc13 [AZD5991] + C[C@@H]1COCCN1C2=NC(=NC(=C2)C3(CC3)[S@](=N)(=O)C)C4=C5C=CNC5=NC=C4 [AZD6738] (first compound max 1 µM, 7x7, partner max 10 µM) .
0.974

====

Test system: CPC-N (Small Cell Lung Carcinoma);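 note: after 72 h of two-drug dosing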
Assay: Bliss excess, mean over the matrix (fraction); higher = more synergy
Each entry below carries its recorded Bliss excess.
Please respond with just the number, no unit label.

Here's what some known entries look like.
C[C@@H](Oc1cc(-c2cnn(C3CCNCC3)c2)cnc1N)c1c(Cl)ccc(F)c1Cl [Crizotinib] + CC1=C(C(=CC=C1)Cl)NC(=O)C2=CN=C(S2)NC3=CC(=NC(=N3)C)N4CCN(CC4)CCO [Dasatinib] (first compound max 10 µM, 7x7, partner max 2 µM): -0.0989
Cc1c2c(nn1C)CSCc1cc(n(C)n1)CSc1cc(c3ccccc3c1)OCCCc1c(C(=O)O)n(C)c3c-2c(Cl)ccc13 [AZD5991] + CN(C)CCCOc1ccc(-c2ccc3ncc4c(c3c2)n(C2CCOCC2)c(=O)n4C)cn1 [AZD0156] (first compound max 1 µM, 7x7, partner max 1 µM): -0.0129
Cc1cc2ncnn2cc1Nc1ncc2c(n1)n(C1CCOCC1)c(=O)n2C [AZD7648] + CCN(CCO)CCCOc1ccc2c(Nc3cc(CC(=O)Nc4cccc(F)c4)[nH]n3)ncnc2c1 [AZD2811] (first compound max 10 µM, 7x7, partner max 1 µM): -0.0306

Now look at this entry.
Fill in: Bliss excess of N#Cc1cnc(Nc2cc(NC[C@H]3CNCCO3)c(C(F)(F)F)cn2)cn1 [SRA737] + CCc1c2c(nc3ccc(O)cc13)-c1cc3c(c(=O)n1C2)COC(=O)[C@]3(O)CC [SN-38] (first compound max 10 µM, 7x7, partner max 0.3 µM) is ___
0.0694
